- measured.on: Wild-type ABL 0P (unphosphorylated) kinase domain (Homo sapiens, UniProt P00519)
- Construct: ABL kinase domain (corresponding to residues 229-512); GST (N, cleaved yes); PreScission cleavage site (N, cleaved yes); made in house; host or cells: High5 insect cells (baculovirus)
- Sequence (P00519 229-512): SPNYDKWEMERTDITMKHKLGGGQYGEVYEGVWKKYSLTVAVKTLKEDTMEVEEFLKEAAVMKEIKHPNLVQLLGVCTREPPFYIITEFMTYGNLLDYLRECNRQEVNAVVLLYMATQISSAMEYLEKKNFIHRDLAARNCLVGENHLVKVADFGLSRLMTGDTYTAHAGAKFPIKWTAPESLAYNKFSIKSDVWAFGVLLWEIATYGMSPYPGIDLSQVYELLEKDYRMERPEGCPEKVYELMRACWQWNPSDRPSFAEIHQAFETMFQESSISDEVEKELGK
- protocol.description: Indolinone probe titration (fluorescence), probe of 3.1
- Assay type: binding
- applied.conditions: Table 1; 10 nM enzyme, probe 3 μM to 0
experimental.endpoint: pKd
Note: pKd values are expressed as the negative base-10 logarithm of concentration in M.

The value of pKd recorded for "CCN(CC)CCNC(=O)c1c(C)[nH]c(/C=C2\C(=O)Nc3ccc(S(=O)(=O)Cc4ccccc4)cc32)c1C" when tested on Wild-type ABL 0P (unphosphorylated) kinase domain (Homo sapiens, UniProt P00519) reads 7.30
